# Target: Cyclin-dependent kinase 8 (Homo sapiens)
# Sequence (P49336 whole entry): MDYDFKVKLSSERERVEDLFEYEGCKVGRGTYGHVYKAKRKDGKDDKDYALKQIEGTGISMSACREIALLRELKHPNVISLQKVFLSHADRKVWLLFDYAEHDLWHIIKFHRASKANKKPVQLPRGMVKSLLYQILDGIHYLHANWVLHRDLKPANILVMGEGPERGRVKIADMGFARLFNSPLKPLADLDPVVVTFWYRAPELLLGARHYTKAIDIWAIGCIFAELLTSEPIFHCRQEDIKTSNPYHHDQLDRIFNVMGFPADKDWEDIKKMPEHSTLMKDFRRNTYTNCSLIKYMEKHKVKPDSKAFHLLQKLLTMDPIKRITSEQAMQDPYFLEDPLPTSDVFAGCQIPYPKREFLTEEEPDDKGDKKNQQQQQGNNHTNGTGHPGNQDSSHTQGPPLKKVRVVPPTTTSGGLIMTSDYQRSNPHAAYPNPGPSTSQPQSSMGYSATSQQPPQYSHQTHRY
# Protocol: Navigating the Kinome. Panel member name: CDK8
# Type: functional
The source made the active and inactive calls.
Hi there, use one of these labels in your reply, thanks! Yes (active), No (inactive)

Field: example entries. Status: answers known.
{"Molecule": "Cc1cc(C)cc(NC(=O)NC2=NN(c3ccccc3)C(=O)C2)c1", "Label Value": "Yes"}
{"Molecule": "O=C1Cc2cc(-c3ccccc3)cnc2N1", "Label Value": "Yes"}
{"Molecule": "O=C1Nc2cc(-c3ccc(O)cc3)ccc2C1=Cc1ccc[nH]1", "Label Value": "No"}

Okay, next one:
Q. In this assay, the call recorded for NC(COc1cncc(-c2ccc3c(c2)C(=Cc2ccc[nH]2)C(=O)N3)c1)Cc1ccccc1 (centres undefined) was what?
A. Yes

====

IC50 values, listed per item
# Target: Photoreceptor-specific nuclear receptor (Homo sapiens);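 further: CHO-S cells with Gal4-NCOR and VP16-NR2E3 two-hybrid luciferase reporter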
# Sequence (Q9Y5X4 whole entry, the tested form may be a part): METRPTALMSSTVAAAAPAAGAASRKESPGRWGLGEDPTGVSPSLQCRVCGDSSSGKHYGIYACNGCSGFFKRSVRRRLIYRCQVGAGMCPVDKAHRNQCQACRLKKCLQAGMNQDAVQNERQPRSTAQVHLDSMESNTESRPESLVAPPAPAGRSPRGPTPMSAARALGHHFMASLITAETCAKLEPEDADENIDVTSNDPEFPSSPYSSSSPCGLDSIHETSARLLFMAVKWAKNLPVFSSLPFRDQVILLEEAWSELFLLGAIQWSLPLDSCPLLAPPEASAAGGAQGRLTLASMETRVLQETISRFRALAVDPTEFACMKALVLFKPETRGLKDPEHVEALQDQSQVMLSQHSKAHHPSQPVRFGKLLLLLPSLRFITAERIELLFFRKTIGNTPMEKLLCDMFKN
# Format: functional, cell-based
Calls of active or inactive are those of the source.

{"Compound": "CCCOc1ccc(CSc2nc3ccccc3[nH]2)cc1", "IC50": "4.25 µM (active)"}

Q. // returns reported IC50 for input CCc1cc(OCCCSc2nc(C)cc(O)n2)ccc1Cl
A. 3.02 µM (active)

Q. # iterate: COc1ccc(C)cc1NC(=O)NC1CC(=O)N(c2ccc3c(c2)OCCO3)C1 (configuration not stated)
A. 3.25 µM (active)

Q. Now consider Brc1ccc(N/N=C(/N=Nc2nn[nH]n2)c2ccccc2)cc1 .
A. 6.49 µM (active)

Q. For O=S(=O)(/C=C/C=C/S(=O)(=O)c1ccccc1)c1ccccc1 then?
A. 1.61 µM (active)

Q. Also, COCCCNC(=S)N1CCN(c2nc(-c3ccc(Cl)cc3)cs2)CC1 please.
A. 4.25 µM (active)

Q. // repeat for Clc1cc2cccnc2c2ncccc12 and report
A. 5.53 µM (active)

====

# Protocol: Luminescence Cell-Based Dose Confirmation HTS to Identify Activators of 5'UTR Stem-Loop Driven Alpha-Synuclein mRNA Translation in H4 Neuroglioblastoma Cells. [Related pubchem assays: 1829 (Project Summary), 1814 (Primary HTS)]
# Assay type: functional
Active and inactive are the calls of the source.
# EC50 per entry

// solved cases for EC50 follow
{"Molecule": "COC(=O)C1=C(NC(=O)c2ccc(C)c(C)c2)CCS1", "EC50": "> 120 µM (not active)"}
{"Molecule": "Cc1cccc(CCNc2nc3ccc(C)cc3n3cnnc23)c1", "EC50": "0.258 µM (active)"}
{"Molecule": "Fc1ccc(C(CCCn2nnc(-c3cccnc3)n2)c2ccc(F)cc2)cc1", "EC50": "13.7 µM (active)"}
{"Molecule": "CCOc1ccc(NC(=O)C(S)=NC2CCCCC2)cc1", "EC50": "61.6 µM (active)"}
{"Molecule": "Cc1nn(C(=O)c2ccoc2C)c(N)c1-c1ccccc1", "EC50": "5.93 µM (active)"}
{"Molecule": "CC1(C)C2CC=C(/C=N/NC(=O)c3ccc(Cl)cc3)C1C2 (stereo unspecified)", "EC50": "> 120 µM (not active)"}
{"Molecule": "Cc1cc(C)c([N+](=O)[O-])cc1-c1ccc(/C=N/c2c(-c3ccco3)nc3ccccn23)o1", "EC50": "8.26 µM (active)"}
{"Molecule": "NC(=NOC(=O)c1cccc([N+](=O)[O-])c1)c1cccnc1", "EC50": "3.61 µM (active)"}
{"Molecule": "CC(=O)C1=NOC(CNc2ncc(C(F)(F)F)cc2Cl)C1 (stereo unspecified)", "EC50": "15.7 µM (active)"}
{"Molecule": "NC(=O)N=Nc1c2nc3ccccc3[nH]c-2c2ccccc12", "EC50": "13 µM (active)"}

The record that follows has no EC50 shown yet.
Q. I have this molecule here, COc1cccc(-c2csc(NC(=O)Nc3ccccc3)n2)c1 , and I need its recorded EC50.
A. > 120 µM (not active)

====

# Target: Prothrombin (Bos taurus, UniProt P00735)
# Protocol: thrombin protease inhibitors – biochemical, fluorescence polarization, uHTS hits, dose response (AID 602369)
# Assay type: functional
The source made the active and inactive calls.
Entry note: the call must match one of active, inactive

Answered examples (4):
{"Query Smiles": "N=C1/C(=C\\c2ccc(-c3cccc(C(=O)O)c3)o2)C(=O)N=C2SC=C(c3ccccc3)N12", "Label Value": "active"}
{"Query Smiles": "O=C(O)CCCN1C(=O)/C(=C\\c2ccc(-c3nc4ccccc4s3)o2)SC1=S", "Label Value": "active"}
{"Query Smiles": "COc1ccc(C#Cc2ccc3c(c2)O[C@@H](CN(C)C(=O)Nc2cccc(OC)c2)[C@H](C)CN([C@@H](C)CO)S3(=O)=O)cc1", "Label Value": "active"}
{"Query Smiles": "COc1cc(Cl)cc(/C=N\\NC(=O)c2ccc3c(c2)OCO3)c1O", "Label Value": "active"}

Q. Lab log entry: Cc1ccc(C(=O)Nc2ccc(C(=O)N/N=C/c3cccnc3)cc2)cc1 — outcome as called in the assay?
A. inactive

Q. Try the compound COC(=O)c1ccccc1NC(=O)CCS(=O)(=O)c1ccc(Br)cc1
A. inactive

====

# Protocol: Luminescence Cell-Based Dose Response HTS to Identify Inhibitors of 5'UTR Stem-Loop Driven Prion Protein mRNA Translation in H4 Neuroglioblastoma Cells. [Related pubchem assays: 1827 (Project Summary), 1813 (Primary HTS)]
# Type: functional
Activity calls are given as the source filed them.
EC50 values for the compounds below.

{"Compound": "CN(C)CCCNC(=O)c1ccc(-c2nc(-c3ccc(Cl)cc3)cs2)cc1", "EC50": "> 120 µM (not active)"}
{"Compound": "COc1ccccc1N1CCN(C(=O)c2cc(=O)c3cc(C)cc(C)c3o2)CC1", "EC50": "0.127 µM (active)"}
{"Compound": "Oc1c(CN2CCN(c3ccc(F)cc3)CC2)cc(Cl)c2cccnc12", "EC50": "0.157 µM (active)"}
{"Compound": "COc1cccc(/C=N/NC(=O)c2[nH]c(C)c(C(=O)N/N=C/c3cccc(OC)c3O)c2C)c1O", "EC50": "18.9 µM (active)"}
{"Compound": "Cc1c(C(=O)Nc2nonc2-c2ccc(F)cc2)oc2ccc(F)cc12", "EC50": "12.9 µM (active)"}

Q. Need EC50, item Fc1ccc(C2c3[nH]c4ccccc4c3CCN2Cc2cccn2-c2ncccn2)cc1 (stereo not drawn)
A. 13.1 µM (active)

Q. What do you get for CCC1CN(C(=O)N2CCC(C(=O)NCc3ccc(C)o3)CC2)c2ccccc2O1 (stereo not drawn) ?
A. > 120 µM (not active)

Q. Also COc1ccc(C(=O)/N=C2\SC3CS(=O)(=O)CC3N2Cc2ccccc2)cc1OC (stereo not drawn) ?
A. 25.4 µM (active)

====

Each entry below carries its recorded EC50.
# Target: RNA-binding protein pos-1 (Caenorhabditis elegans)
# Sequence (G5EF15 whole entry, the tested form may be a part): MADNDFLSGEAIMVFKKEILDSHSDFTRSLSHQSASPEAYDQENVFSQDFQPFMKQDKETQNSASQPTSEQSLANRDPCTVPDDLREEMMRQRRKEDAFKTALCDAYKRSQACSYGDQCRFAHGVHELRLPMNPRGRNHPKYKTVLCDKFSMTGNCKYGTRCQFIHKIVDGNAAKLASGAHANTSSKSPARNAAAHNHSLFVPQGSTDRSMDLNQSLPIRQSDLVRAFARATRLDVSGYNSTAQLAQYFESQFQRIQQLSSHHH
# Protocol: disruptors of C. elegans POS-1 RNA interaction – biochemical, fluorescence polarization, dose response (AID 1964);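 further: purified POS-1 fused to maltose binding protein made in E. coli; potency of compounds blocking POS-1 binding to fluorescent RNA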
Activity calls are given as the source filed them.

Some entries whose results are on file:
{"Molecule": "O=C1c2ccccc2C(=O)c2[nH]cnc21", "EC50": "> 300 µM (not active)"}
{"Molecule": "O/C(=C(\\C([S-])=NCc1ccco1)[n+]1ccccc1)c1ccccc1Br", "EC50": "> 300 µM (not active)"}

Q. EC50 for COc1cccc(NC(=O)c2ccccc2Br)c1 ?
A. > 300 µM (not active)

Q. // next record CCCCC1=CC2=C(c3ccco3)C(=O)C(C)(OC(=O)c3ccc(OC)cc3)C(=O)C2=CN1CCN1CCOCC1 (stereo unspecified)
A. 95.7 µM (active)

Q. Next molecule: CC(C)(C)c1ccc(OCc2ccc(C(=O)Nc3cccnc3)o2)cc1
A. > 300 µM (not active)

Q. Note, next up: Nc1ccc(Nc2ccccc2)c(S(=O)(=O)O)c1
A. 108 µM (active)

====

# Target: Epstein-Barr nuclear antigen 1 (Epstein-Barr virus (strain B95-8) (HHV-4) (Human herpesvirus 4))
# Sequence (P03211 whole entry): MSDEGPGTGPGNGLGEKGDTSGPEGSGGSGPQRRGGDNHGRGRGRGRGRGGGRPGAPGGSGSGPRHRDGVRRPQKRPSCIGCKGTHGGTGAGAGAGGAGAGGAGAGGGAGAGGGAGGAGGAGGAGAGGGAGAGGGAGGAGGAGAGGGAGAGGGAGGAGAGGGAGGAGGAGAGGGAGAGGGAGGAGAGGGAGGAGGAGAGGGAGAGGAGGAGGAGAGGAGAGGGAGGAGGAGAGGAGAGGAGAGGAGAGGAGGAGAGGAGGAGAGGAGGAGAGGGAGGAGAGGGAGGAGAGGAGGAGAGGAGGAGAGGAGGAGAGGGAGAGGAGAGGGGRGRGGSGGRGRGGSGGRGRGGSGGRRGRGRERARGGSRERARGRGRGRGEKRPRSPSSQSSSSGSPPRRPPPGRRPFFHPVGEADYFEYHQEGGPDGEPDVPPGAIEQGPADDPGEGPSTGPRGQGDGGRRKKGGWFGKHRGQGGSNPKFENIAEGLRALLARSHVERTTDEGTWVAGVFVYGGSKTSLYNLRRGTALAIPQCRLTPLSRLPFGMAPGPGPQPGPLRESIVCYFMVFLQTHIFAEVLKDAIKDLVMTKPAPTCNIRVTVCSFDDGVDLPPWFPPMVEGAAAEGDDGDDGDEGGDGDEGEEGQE
# Protocol: inhibition of EBV nuclear antigen 1 DNA binding – biochemical, fluorescence polarization, 1536-well, dose response (AID 2381);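 further: fluorescence polarization of a Cy5 DNA probe bound by EBNA-1 protein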
# Set-up: species or system human gammaherpesvirus 4
The source made the active and inactive calls.
Reported Property: IC50

Q. Fill in the blank: the reported IC50 of O=C(CNC(=O)c1ccc(-c2ccccc2)cc1)OCc1c(F)cccc1Cl is ____.
A. 11.7 µM (not active)

Q. Would you kindly repeat that for COc1ccc(Cl)cc1NC(=O)CN1CCN(S(=O)(=O)c2ccc(F)cc2)CC1 ?
A. 16.4 µM (not active)

Q. Would you mind doing O=c1[nH]c(CN2CCN(S(=O)(=O)c3ccc4ccccc4c3)CC2)nc2ccccc12 as well?
A. 5.56 µM (active)

Q. Input C/C(=N\NC(=O)c1c(Br)cnn1C)c1ccc(NC(=O)c2ccc(F)cc2)cc1
A. 3.62 µM (active)
